// provenance: ChEMBL document CHEMBL1130551

# tgt: Progesterone receptor (Oryctolagus cuniculus)
# Sequence (P06186 whole entry): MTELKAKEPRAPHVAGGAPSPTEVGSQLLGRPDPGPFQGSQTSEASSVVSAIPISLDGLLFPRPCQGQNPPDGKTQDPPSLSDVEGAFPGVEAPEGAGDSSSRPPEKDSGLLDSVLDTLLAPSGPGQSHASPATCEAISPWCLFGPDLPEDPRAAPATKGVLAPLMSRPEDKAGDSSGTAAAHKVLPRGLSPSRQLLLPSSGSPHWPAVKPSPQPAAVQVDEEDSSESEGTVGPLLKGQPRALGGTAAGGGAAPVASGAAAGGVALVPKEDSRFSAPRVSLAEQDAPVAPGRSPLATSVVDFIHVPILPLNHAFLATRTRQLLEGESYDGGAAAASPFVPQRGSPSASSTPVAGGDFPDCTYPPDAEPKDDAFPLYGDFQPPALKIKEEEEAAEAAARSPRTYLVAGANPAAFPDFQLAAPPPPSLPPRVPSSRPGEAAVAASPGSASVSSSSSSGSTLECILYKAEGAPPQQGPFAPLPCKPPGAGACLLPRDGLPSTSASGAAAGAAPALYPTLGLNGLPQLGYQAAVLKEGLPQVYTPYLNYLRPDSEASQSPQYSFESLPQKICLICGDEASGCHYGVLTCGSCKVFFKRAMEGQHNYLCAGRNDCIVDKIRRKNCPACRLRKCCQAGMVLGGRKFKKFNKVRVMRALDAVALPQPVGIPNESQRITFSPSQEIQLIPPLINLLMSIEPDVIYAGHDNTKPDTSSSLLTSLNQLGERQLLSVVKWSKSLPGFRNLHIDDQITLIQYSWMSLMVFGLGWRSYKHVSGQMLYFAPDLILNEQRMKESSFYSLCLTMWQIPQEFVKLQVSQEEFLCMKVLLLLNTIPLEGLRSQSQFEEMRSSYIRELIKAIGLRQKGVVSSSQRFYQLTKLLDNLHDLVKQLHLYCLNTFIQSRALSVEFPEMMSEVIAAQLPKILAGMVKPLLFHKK
# test: Binding affinity determined by ability to displace [3H]R5020 radioligand using uterine progesterone receptor obtained from estrogen-primed rabbit
pIC50: −log10 of the molar value.
measured attribute: pIC50

compound	pIC50
O=Cc1nn(-c2cccc(Cl)c2)c2c1CCCC2Cc1cccc2ccccc12 (stereo not given)	7.16

[1] O=Cc1nn(-c2ccc(F)cc2)c2c1CCCC2Cc1ccc2ccccc2c1 (stereo not given)
[2] COc1ccc(-n2nc(C=O)c3c2C(Cc2cccc4ccccc24)CCC3)cc1 (stereo not given)
[3] CN(C)/N=C/c1nn(-c2ccc(F)cc2)c2c1CCCC2Cc1cccc2ccccc12 (stereo not given)
[4] O=Cc1nn(-c2ccccc2)c2c1CCCC2Cc1cccc2ccccc12 (stereo not given)
[5] Fc1ccc(-n2nc(/C=N/c3ccccc3)c3c2C(Cc2cccc4ccccc24)CCC3)cc1 (stereo not given)
[ask] Order the items by recorded pIC50; the first position goes to the largest value. Please respond by ranking the labels in the order requested.
[reply] 5, 4, 2, 1, 3
(5: 8.64, 4: 8.22, 2: 7.90, 1: 7.25, 3: 6.26)
